# tested_system: UniProt:P00800
# Sequence (P00800 whole entry): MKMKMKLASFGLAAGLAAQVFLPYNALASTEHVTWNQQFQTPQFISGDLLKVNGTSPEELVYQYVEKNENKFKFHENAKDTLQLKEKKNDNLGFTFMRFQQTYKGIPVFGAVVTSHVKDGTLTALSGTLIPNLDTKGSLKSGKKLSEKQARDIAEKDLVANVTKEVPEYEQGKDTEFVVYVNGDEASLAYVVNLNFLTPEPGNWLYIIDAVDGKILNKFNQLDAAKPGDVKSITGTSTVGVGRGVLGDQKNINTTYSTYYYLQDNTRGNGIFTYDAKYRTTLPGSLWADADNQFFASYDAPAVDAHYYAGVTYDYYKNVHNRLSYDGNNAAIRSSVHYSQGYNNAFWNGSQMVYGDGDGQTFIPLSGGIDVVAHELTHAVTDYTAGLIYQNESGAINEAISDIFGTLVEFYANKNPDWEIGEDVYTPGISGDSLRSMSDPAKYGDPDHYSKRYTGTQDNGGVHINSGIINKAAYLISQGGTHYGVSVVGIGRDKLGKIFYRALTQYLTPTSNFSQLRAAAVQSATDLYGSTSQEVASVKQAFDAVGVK
pKi: −log10 of the molar value.
The molecules listed here are annotated with their pKi.
experimental_readout: pKi

• COC(=O)[C@@H](Cc1ccccc1)NC(=O)[C@@H](Cc1ccccc1)C[N+](=O)[O-] = 4.07
• COC(=O)[C@H](Cc1ccccc1)NC(=O)[C@H](CC(C)C)C[N+](=O)[O-] = 6.08
• COC(=O)[C@H](CC(C)C)NC(=O)[C@@H](CC(C)C)C[N+](=O)[O-] = 6.11
• NC(=O)C(Cc1ccccc1)C[N+](=O)[O-] (racemic) = 4.44
• COC(=O)[C@H](Cc1ccccc1)NC(=O)[C@@H](Cc1ccccc1)C[N+](=O)[O-] = 4.10
